Overview of reported AC50 across a group of compounds:
Target: Cytochrome P450 2C19 (Homo sapiens)
Sequence (P33261 whole entry): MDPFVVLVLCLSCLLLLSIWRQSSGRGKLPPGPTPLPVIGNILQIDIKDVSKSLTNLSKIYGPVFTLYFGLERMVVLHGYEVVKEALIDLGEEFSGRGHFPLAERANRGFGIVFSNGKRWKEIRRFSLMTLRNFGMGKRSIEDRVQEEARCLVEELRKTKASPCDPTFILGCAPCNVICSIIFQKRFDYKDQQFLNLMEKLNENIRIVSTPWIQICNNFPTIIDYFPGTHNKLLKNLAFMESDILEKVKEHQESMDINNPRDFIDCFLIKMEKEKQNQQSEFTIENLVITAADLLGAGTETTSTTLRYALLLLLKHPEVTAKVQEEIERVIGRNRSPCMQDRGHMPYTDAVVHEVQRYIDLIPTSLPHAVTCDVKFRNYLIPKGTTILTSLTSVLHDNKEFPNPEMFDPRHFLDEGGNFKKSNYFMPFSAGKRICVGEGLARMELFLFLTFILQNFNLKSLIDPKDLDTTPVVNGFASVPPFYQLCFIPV
Experiment: Cytochrome panel assay with activity outcomes. Panel member name: p450-cyp2c19 Compounds with AC50 equal or less than 10 uM are considered active
Format: functional
Settings: read-out: AC50

Asked: Observed AC50 on Cytochrome P450 2C19 (Homo sapiens) for `Cc1ccc(NC(=O)CCC(=O)NNC(=O)c2ccco2)cc1C` , please.
Given back: 17.8 µM (inconclusive)

Asked: Same for `CNCC/C=C\c1cccnc1`
Given back: 20 µM (inconclusive)

Asked: Same for `COC(=O)[C@@]1(Cc2ccc(F)cc2)[C@H]2c3cc(C(=O)N4CCCC4)n(Cc4c(CO)ncc(C)c4O)c3C[C@H]2CN1C(=O)c1ccccc1`
Given back: 39.8 µM (inconclusive)

Asked: Same for `O=c1[nH][nH]c(=S)c(=O)[nH]1`
Given back: 2 µM (inconclusive)

Asked: Same for `CC(=O)N(CC(=O)O)c1ccccc1C(=O)O`
Given back: 0.0562 µM (inconclusive)

Asked: Same for `CC(C)CN(CC(C)C)S(=O)(=O)N1CCC(C(=O)NCc2ccc(F)cc2)CC1`
Given back: 25.1 µM (inconclusive)

Asked: Same for `COc1ccc(-c2nc(-c3cccc(C)c3)nc(N3CCN(C)CC3)c2C#N)cc1`
Given back: 20 µM (inconclusive)

###

The following are reported AC50 results, target or system Cytochrome P450 2C9 (Homo sapiens, UniProt P11712).

Below: 5 compounds and their reported AC50.
CN(CCC#N)C(=O)c1ccc(CNS(=O)(=O)c2ccc(F)cc2)cc1 : 10 µM (inconclusive)
Cc1ccc(-n2c(C)nc3c(cnn3-c3ccc(F)cc3)c2=O)cc1C : 15.8 µM (inconclusive)
CNCC/C=C\c1cccnc1 : 39.8 µM (inconclusive)
O=c1[nH][nH]c(=S)c(=O)[nH]1 : 2.51 µM (inconclusive)
CSc1nc(C)cc(SC(C(C)=O)C(=O)Nc2ccccc2)n1 (stereo unspecified) : 1.58 µM (inconclusive)

Read the next record carefully.
Asked: Reported AC50 for `Fc1ccccc1CCNCc1cccc(Cl)c1Cl` : what is it?
Given back: 39.8 µM (inconclusive)

###

Biological target: Protein skinhead-1 (Caenorhabditis elegans)
Sequence (P34707 whole entry): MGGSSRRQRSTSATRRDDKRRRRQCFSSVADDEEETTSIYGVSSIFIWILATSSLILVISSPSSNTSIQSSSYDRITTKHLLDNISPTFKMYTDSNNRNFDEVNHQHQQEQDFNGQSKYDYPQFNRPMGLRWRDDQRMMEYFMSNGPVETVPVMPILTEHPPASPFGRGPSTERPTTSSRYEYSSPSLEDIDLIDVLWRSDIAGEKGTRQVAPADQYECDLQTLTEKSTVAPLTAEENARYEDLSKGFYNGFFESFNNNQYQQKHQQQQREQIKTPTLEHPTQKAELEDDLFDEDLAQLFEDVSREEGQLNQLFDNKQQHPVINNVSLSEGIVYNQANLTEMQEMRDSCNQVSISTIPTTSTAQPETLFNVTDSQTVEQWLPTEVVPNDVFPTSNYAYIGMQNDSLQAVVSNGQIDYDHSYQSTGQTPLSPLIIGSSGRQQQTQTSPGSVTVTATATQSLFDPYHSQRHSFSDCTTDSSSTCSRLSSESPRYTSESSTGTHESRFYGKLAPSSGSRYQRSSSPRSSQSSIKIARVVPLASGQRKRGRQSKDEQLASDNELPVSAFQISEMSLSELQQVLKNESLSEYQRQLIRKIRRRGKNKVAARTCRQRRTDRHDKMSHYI
Type: functional
Calls of active or inactive are those of the source.
Could you please pick one outcome from this set? active, inactive

Some solved cases for reference:
COc1ccccc1-c1nnc(-c2ccc(F)cc2)o1 : inactive
Cc1cc(N(CCCl)CCCl)ccc1C=Cc1ccncn1 : inactive

Attention now shifts to the item below.
Asked: Call for entry `Cc1ccc(-c2nc(-c3ccncc3)no2)cc1` :
Given back: active

###

Test: fluconazole-exposed Candida albicans growth modulators – fluorescence, retest, confirmation (AID 2467)
Format: functional, cell-based
Active and inactive are the calls of the source.
Overview of reported EC50 across a group of compounds:

O=C1NC(=O)/C(=C\c2ccc(Br)o2)S1 : 1.3 µM (active)
CC[n+]1c(/C=C/N(C)c2ccccc2)oc2ccccc21 : 3.58 µM (active)
O=C(NNc1ccc([N+](=O)[O-])cc1)c1ccccc1Cl : > 38 µM (not active)

Asked: Reported EC50 for `N=C(Cc1ccc(Cl)c(Cl)c1)NOC(=O)c1cccs1` : what is it?
Given back: 0.376 µM (active)

###

Biological target: Sentrin-specific protease 6 (Homo sapiens, UniProt Q9GZR1);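 note: Luminescence-based dose-response confirmatory assay of SENP6 inhibition, following up an ultra-high-throughput screen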
Sequence (Q9GZR1 whole entry): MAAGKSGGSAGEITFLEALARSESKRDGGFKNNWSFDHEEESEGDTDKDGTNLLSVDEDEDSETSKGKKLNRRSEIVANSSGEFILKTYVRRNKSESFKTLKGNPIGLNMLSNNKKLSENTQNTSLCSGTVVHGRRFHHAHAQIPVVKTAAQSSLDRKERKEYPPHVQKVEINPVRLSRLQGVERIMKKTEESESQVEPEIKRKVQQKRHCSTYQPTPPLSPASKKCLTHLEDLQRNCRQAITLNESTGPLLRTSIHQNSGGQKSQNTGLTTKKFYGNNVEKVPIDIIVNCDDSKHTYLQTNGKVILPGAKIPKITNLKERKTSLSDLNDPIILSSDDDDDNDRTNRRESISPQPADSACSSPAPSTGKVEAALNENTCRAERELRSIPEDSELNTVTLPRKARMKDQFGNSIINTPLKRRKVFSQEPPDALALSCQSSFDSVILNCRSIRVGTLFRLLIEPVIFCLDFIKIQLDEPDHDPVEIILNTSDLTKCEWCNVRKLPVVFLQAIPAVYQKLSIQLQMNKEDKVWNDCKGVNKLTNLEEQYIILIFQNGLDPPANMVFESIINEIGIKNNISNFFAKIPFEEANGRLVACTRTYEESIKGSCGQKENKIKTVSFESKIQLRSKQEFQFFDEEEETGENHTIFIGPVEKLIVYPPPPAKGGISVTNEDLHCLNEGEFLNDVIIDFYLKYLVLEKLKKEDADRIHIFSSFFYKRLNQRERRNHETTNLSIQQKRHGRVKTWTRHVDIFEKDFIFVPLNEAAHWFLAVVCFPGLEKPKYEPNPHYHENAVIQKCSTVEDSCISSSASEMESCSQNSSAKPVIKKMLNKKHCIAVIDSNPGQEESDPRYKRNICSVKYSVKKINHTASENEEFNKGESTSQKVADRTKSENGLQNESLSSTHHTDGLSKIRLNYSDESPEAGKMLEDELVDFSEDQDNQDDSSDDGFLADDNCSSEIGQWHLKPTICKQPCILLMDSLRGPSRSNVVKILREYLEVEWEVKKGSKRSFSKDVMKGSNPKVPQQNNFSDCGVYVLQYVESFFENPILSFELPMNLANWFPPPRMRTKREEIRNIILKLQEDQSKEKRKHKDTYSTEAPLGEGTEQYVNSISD
Format: functional
Activity calls are given as the source filed them.
Could you please pick one outcome from this set? 1 (yes) (active), 0 (no) (inactive)

Some solved cases for reference:
Nc1[nH]n(-c2ccccc2)c(=O)c1N=Nc1ccccc1 : 0 (no)
N=C1/C(=C/c2cccs2)C(=O)N=C2SN=C(SCc3ccccc3)N12 : 1 (yes)
CC(/C=C1\SC(=S)N(NS(=O)(=O)c2ccc(C)cc2)C1=O)=C\c1ccccc1 : 1 (yes)
O=C(Nc1ccc(Cl)cc1)Nc1nccs1 : 1 (yes)
O=C(Nc1nc(=O)c2ccccc2s1)c1ccccc1 : 1 (yes)

Asked: Call for entry `Cc1ccc(NC2=C(NCCO)C(=O)c3ccccc3C2=O)cc1` :
Given back: 1 (yes)

Asked: Same for `CCSc1nsc(NC(=O)Nc2ccccc2F)n1`
Given back: 0 (no)

Asked: Same for `c1ccc2nc(-c3ccc(-n4ccnc4)cc3)ccc2c1`
Given back: 1 (yes)

Asked: Same for `COc1cccc(C(=O)OCC(=O)c2ccc(Br)s2)c1`
Given back: 1 (yes)
